Where do these numbers come from? They come from patent US20180057462A1.

Recorded measurements of LogP[a], one per entry
# testDescription: LogP by HPLC on reversed phase columns (EEC directive 79/831 Annex V.A8), method [a]
# Type: physicochemical
# cond: LC-UV, acidic range, 0.1% formic acid in water and acetonitrile as eluent (linear gradient 10% to 95% acetonitrile)

Please fill in: LogP[a] reported for Cc1c(NC(=O)c2cccnc2C(F)F)cccc1C1CCCC1 = 3.25

====

# testDescription: LogP by HPLC on reversed phase columns (EEC directive 79/831 Annex V.A8), method [a]
# Format: physicochemical
# cond: LC-UV, acidic range, 0.1% formic acid in water and acetonitrile as eluent (linear gradient 10% to 95% acetonitrile)
measurementKind: LogP[a]
Respond numerically, and do not add a unit to the figure.

Examples from the recorded data:
Cc1c(NC(=O)c2cccnc2C(F)F)cccc1OCCc1cccc(Cl)c1
3.61
O=C(Nc1cccc(-c2ccccc2F)c1Cl)c1cccnc1C(F)F
2.99
Cc1c(NC(=O)c2cccnc2C(F)F)cccc1OC(C)c1ccc(Cl)c(Cl)c1 (centres unmarked)
4.01
Cc1c(NC(=O)c2cccnc2C(F)F)cccc1OC(C)COc1ccccc1 (centres unmarked)
3.33

Please fill in: LogP[a] reported for Cc1c(NC(=O)c2cccnc2C(F)F)cccc1OCCc1ccc(C(F)(F)F)cc1 = 3.72
